Source: patent US20260262643A1

Overview of recorded Plant response rating, Ragweed for various compounds
Test system: ragweed
Assay: Test C preemergence
Format: in vivo, Ambrosia artemisiifolia
Details: Preemergence, 1000 g ai/ha; visual rating after 10 days, 0 to 100 scale (0 no effect, 100 complete control)
Just the number, please, no unit after it.

These solved cases illustrate the format of a correct answer.
{"columns": ["SMI", "SYSTEM UNDER TEST", "REPORTED MEASUREMENT"],
 "data": [
  ["CC1(C)CN(C(=O)c2ccnc(-n3cncn3)c2)c2ccccc2O1", "ragweed", 0],
  ["C[C@H]1CN(C(=O)c2cccc(N3CCOCC3)c2)c2cccc(Cl)c2O1", "ragweed", 0],
  ["Cc1cnc(-c2cccc(C(=O)N3C[C@H](C)Oc4c(C)cccc43)c2)s1", "ragweed", 30]
]}

Moving on to another compound below.
Please report Plant response rating, Ragweed for the following compound: Cc1cccc2c1O[C@@H](C)CN2C(=O)c1cccc(-n2cnc(Cl)c2)c1 0

* * *

Tested on: ryegrass, Italian
Assay: Test A preemergence
Assay type: in vivo, Lolium multiflorum
Conditions: 125 g ai/ha, visual injury after 10 days, 0 to 100 scale, 0 is no effect, 100 is complete control
Values of Plant response rating, Ryegrass, Italian strictly less than 80 map to true (1), and values of at least 80 map to false (0).

Worked set:
{"columns": ["COMPOUND", "CATEGORY"],
 "data": [
  ["Cc1ncn(-c2cccc(C(=O)N3C[C@H](C)Oc4c(C)cccc43)c2)n1", "false (0)"],
  ["Cc1c(C(=O)N2CC(C)Oc3c(Cl)cccc32)cccc1-n1cncn1 (centres unmarked)", "true (1)"],
  ["CC(C)c1ncn(-c2cccc(C(=O)N3C[C@H](C)Oc4c(Cl)cccc43)c2)n1", "false (0)"],
  ["COc1ccc(-n2cnc(C)n2)cc1C(=O)N1C[C@H](C)Oc2c(Cl)cccc21", "false (0)"],
  ["Cc1cccc2c1O[C@@H](C)CN2C(=O)c1cccc(-n2cnc(C(C)(C)C)n2)c1", "false (0)"]
]}

Hello, is Plant response rating, Ryegrass, Italian of the following compound strictly smaller than 80? Cc1cccc2c1O[C@@H](C)CN2C(=O)c1cccc(-n2cnc(C3CC3)n2)c1 true (1)

Hello, is Plant response rating, Ryegrass, Italian of the following compound strictly smaller than 80? C[C@H]1CN(C(=O)c2cccc(-n3cnc(CC4CCCCC4)n3)c2)c2cccc(Cl)c2O1 true (1)

* * *

Tested on: ryegrass, Italian
Experiment: Test C postemergence
Type: in vivo, Lolium multiflorum
Settings: 125 g ai/ha, postemergence, 10 days; 0 to 100 scale, 0 no effect, 100 complete control
Overview of recorded Plant response rating, Ryegrass, Italian for various molecules

These solved cases illustrate the format of a correct answer.
{"columns": ["SMI", "REPORTED MEASUREMENT"],
 "data": [
  ["CSCc1ncn(-c2ccc(C)c(C(=O)N3C[C@H](C)Oc4c(Cl)cccc43)c2)n1", 80],
  ["COc1cc(C(=O)N2C[C@H](C)Oc3c(Cl)cccc32)cc(-n2cnc(C(C)C)n2)c1", 50],
  ["CCc1ncn(-c2ccc(OC)c(C(=O)N3C[C@H](C)Oc4c(C)cccc43)c2)n1", 70]
]}

Moving on to another molecule below.
Please report Plant response rating, Ryegrass, Italian for the following molecule: COc1ccc(-n2cncn2)cc1C(=O)N1C[C@H](C)Oc2c(Cl)cccc21 90

* * *

Tested on: ragweed
Test: Test C preemergence
Format: in vivo, Ambrosia artemisiifolia
Details: Test C, preemergence, 125 g ai/ha; 0 to 100 scale (0 no effect, 100 complete control)
Overview of recorded Ragweed plant response rating for various molecules
Just the number, please, no unit after it.

{"columns": ["MOLECULE", "Ragweed plant response rating"],
 "data": [
  ["CC(C)c1ncn(-c2cccc(C(=O)N3CC(C(F)(F)F)Oc4c(Cl)cccc43)c2)n1 (single isomer, unassigned) [Compound 289]", 50],
  ["Cc1cccc2c1O[C@@H](C)CN2C(=O)c1cccc(-n2cnc(N(C)C)n2)c1 [Compound 226]", 20],
  ["CCc1c(C)cc(-n2cnc(C(C)C)n2)cc1C(=O)N1C[C@H](C)Oc2c(Cl)cccc21 [Compound 179]", 0],
  ["CC(C)c1ncn(-c2cc(C(=O)N3C[C@H](C)Oc4c(Cl)cccc43)cnn2)n1 [Compound 305]", 70],
  ["CSCc1ncn(-c2ccc(C)c(C(=O)N3C[C@H](C)Oc4c(Cl)cccc43)c2)n1 [Compound 178]", 0]
]}

Answer with Ragweed plant response rating of CCc1ncn(-c2ccc(OC)c(C(=O)N3C[C@H](COC)Oc4c(Cl)cccc43)c2)n1 [Compound 231] measured for ragweed. 50

Answer with Ragweed plant response rating of COc1c(C)cc(-n2cnc(C(C)C)n2)cc1C(=O)N1C[C@H](C)Oc2c(Cl)cccc21 [Compound 260] measured for ragweed. 0

Answer with Ragweed plant response rating of Cc1ccc(-n2cnc(C[S+](C)[O-])n2)cc1C(=O)N1C[C@H](C)Oc2c(Cl)cccc21 (stereo partly shown) [Compound 224] measured for ragweed. 0

Answer with Ragweed plant response rating of CC(C)c1ncn(-c2ccc(SC(F)(F)F)c(C(=O)N3C[C@H](C)Oc4c(Cl)cccc43)c2)n1 [Compound 249] measured for ragweed. 0

Answer with Ragweed plant response rating of COc1ccc(-n2cnc(C(C)C)n2)cc1C(=O)N1C[C@H](C)Oc2c(F)cccc21 [Compound 269] measured for ragweed. 100

Answer with Ragweed plant response rating of CCc1ncn(-c2ccc(OC)c(C(=S)N3C[C@H](C)Oc4c(C)cccc43)c2)n1 [Compound 271] measured for ragweed. 10

Answer with Ragweed plant response rating of Cc1cccc2c1O[C@@H](C)CN2C(=O)c1cc(-n2cnc(C(C)C)n2)cc2occc12 [Compound 195] measured for ragweed. 60

* * *

System: foxtail, giant
Assay: Test C postemergence
Format: in vivo, Setaria faberi
Details: Postemergence, 125 g ai/ha; 0 to 100 scale (0 no effect, 100 complete control), 10 days
VALUE TYPE: Plant response rating, Foxtail, Giant
Just the number, please, no unit after it.

These solved cases illustrate the format of a correct answer.
{"columns": ["MOLECULE", "SYSTEM UNDER TEST", "Plant response rating, Foxtail, Giant"],
 "data": [
  ["CC(C)c1cc(C(=O)N2C[C@H](C)Oc3c(Cl)cccc32)cc(-n2cncn2)c1", "foxtail, giant", 10],
  ["CCc1ncn(-c2cc(C(=O)N3CC(C(F)(F)F)Oc4c(C)cccc43)ccn2)n1 (stereo not shown)", "foxtail, giant", 90],
  ["CCc1cc(C(=O)N2C[C@H](C)Oc3c(Cl)cccc32)cc(-n2cncn2)c1", "foxtail, giant", 40],
  ["Cc1cccc2c1OC(C(F)(F)F)CN2C(=O)c1ccnc(-n2cnc(C(C)C)n2)c1 (single isomer, unassigned) [Compound 328]", "foxtail, giant", 90],
  ["CCc1ncn(-c2cc(C(=O)N3CC(C(F)(F)F)Oc4c(Cl)cccc43)ccn2)n1 (racemic)", "foxtail, giant", 70],
  ["CC(C)c1ncn(-c2cc(C(=O)N3CC(C(F)(F)F)Oc4c(Cl)cccc43)ccn2)n1 (single isomer, unassigned) [Compound 330]", "foxtail, giant", 50]
]}

Answer with Plant response rating, Foxtail, Giant of CC(C)c1ncn(-c2cc(C(=O)N3CC(C(F)(F)F)Oc4c(Cl)cccc43)ccn2)n1 (single isomer, unassigned) [Compound 331] measured for foxtail, giant. 30

* * *

System: soybean
Assay: Test C preemergence
Assay type: in vivo, Glycine max
Settings: Preemergence, 125 g ai/ha; 0 to 100 scale, 0 no effect, 100 complete control
Overview of recorded Plant response rating, Soybean for various compounds
Just the number, please, no unit after it.

These solved cases illustrate the format of a correct answer.
{"columns": ["COMPOUND", "Plant response rating, Soybean"],
 "data": [
  ["Cc1ccc(-n2cnc(C(C)O)n2)cc1C(=O)N1CC(C)Oc2c(Cl)cccc21 (mixture of isomers)", 100],
  ["COCc1ncn(-c2ccc(C)c(C(=O)N3C[C@H](C)Oc4c(Cl)cccc43)c2)n1", 100],
  ["CCOCC1CN(C(=O)c2cc(-n3cnc(C4CCC4)n3)ccc2OC)c2cccc(Cl)c2O1 (centres unmarked)", 60],
  ["Cc1ccc(-n2cncn2)cc1C(=O)N1CC(C(F)(F)F)Oc2c(Cl)cccc21 (centres unmarked)", 30],
  ["CC(C)c1ncn(-c2ccc(S(C)(=O)=O)c(C(=O)N3C[C@H](C)Oc4c(Cl)cccc43)c2)n1", 20],
  ["Cc1ccc(-n2cnc(C#N)n2)cc1C(=O)N1C[C@H](C)Oc2c(Cl)cccc21", 20]
]}

Please report Plant response rating, Soybean for the following compound: Cc1ccc(-n2cnc(C(C)C)n2)cc1C(=O)N1CC(C(F)(F)F)Oc2c(Cl)cccc21 (centres unmarked) 50

Please report Plant response rating, Soybean for the following compound: Cc1cccc2c1OC(C(F)(F)F)CN2C(=O)c1ccnc(-n2cnc(C(C)C)n2)c1 (centres unmarked) 100

Please report Plant response rating, Soybean for the following compound: COC[C@H]1CN(C(=O)c2cc(-n3cnc(C(C)(C)O)n3)ccc2OC)c2cccc(Cl)c2O1 80

Please report Plant response rating, Soybean for the following compound: Cc1ncn(-c2cccc(C(=O)N3C[C@H](C)Oc4c(Cl)cccc43)c2)n1 70

Please report Plant response rating, Soybean for the following compound: Cc1ncn(-c2ccc(F)c(C(=O)N3C[C@H](C)Oc4c(C)cccc43)c2)n1 100
